# target-under-test: BTK T474S (Homo sapiens (Human), UniProt Q06187, T474S)
# Sequence (Q06187 whole entry T474S): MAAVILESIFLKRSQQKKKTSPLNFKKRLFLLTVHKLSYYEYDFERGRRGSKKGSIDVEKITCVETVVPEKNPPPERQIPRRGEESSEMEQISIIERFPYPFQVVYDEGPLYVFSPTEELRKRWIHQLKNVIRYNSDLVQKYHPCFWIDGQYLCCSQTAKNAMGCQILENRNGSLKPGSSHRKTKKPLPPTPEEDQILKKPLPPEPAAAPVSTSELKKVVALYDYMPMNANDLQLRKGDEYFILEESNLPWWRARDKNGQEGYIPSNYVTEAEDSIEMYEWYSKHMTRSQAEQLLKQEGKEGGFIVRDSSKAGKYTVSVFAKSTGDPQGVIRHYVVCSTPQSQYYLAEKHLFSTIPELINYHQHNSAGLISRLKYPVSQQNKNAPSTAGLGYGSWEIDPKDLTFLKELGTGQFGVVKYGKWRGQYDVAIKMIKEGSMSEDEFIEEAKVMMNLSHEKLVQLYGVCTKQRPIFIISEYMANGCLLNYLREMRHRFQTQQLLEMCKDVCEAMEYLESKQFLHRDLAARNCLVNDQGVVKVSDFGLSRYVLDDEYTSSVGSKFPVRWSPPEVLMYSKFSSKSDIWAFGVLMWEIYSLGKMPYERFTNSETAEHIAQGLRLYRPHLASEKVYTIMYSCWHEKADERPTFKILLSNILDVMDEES
# experiment-description: Binding kinetics measurements (Surface Plasmon Resonance) on BTK T474S
# conditions: SPR binding kinetics, BTK T474S; read-out: Tau (h) BTK T474S (Act); target residence time (converted)
parameter-measured: residence time (h)

INSERT INTO results (molecule, parameter_measured, value) VALUES
  ('C[C@@H]1CCn2nc(-c3ccc(C(=O)Nc4cc(C(F)(F)F)ccn4)cc3)c3c(N)ncc(c32)/C=C/COCCC(=O)N1', 'residence time', 4.32),
  ('COc1ccc(F)cc1C(=O)NCc1ccc(-c2nn3c4c(cnc(N)c24)/C=C/CCCCCC(=O)N[C@H](C)CC3)cc1', 'residence time', 2.11),
  ('C[C@H]1CC(=O)N[C@@H]2CCC[C@H](C2)n2nc(-c3ccc(C(=O)Nc4cc(C(F)(F)F)ccn4)cc3)c3c(N)ncc(c32)/C=C/CCO1', 'residence time', 1.06),
  ('C[C@@H]1CC(=O)N[C@@H]2CCC[C@H](C2)c2nc(-c3ccc(C(=O)Nc4cc(C(F)(F)F)ccn4)cc3)c3c(N)ncc(n23)/C=C/CCN1', 'residence time', 3.01),
  ('Nc1ncc2c3c1c(-c1ccc(C(=O)Nc4cc(C(F)(F)F)ccn4)cc1)nn3[C@@H]1CCC[C@H](C1)NC(=O)CNC[C@@H](O)/C=C/2', 'residence time', 5.96),
  ('C[C@@H]1CC(=O)N[C@@H]2CCC[C@H](C2)n2nc(-c3ccc(C(=O)Nc4cc(C(F)(F)F)ccn4)cc3)c3c(N)ncc(c32)/C=C/CCO1', 'residence time', 1.47),
  ('Nc1ncc2c3c1c(-c1ccc(C(=O)Nc4cc(C(F)(F)F)ccn4)cc1)nn3[C@@H]1CC[C@H](C1)NC(=O)CCOCC/C=C/2', 'residence time', 2.56),
  ('C[C@@H]1CC(=O)N[C@@H]2CCC[C@H](C2)n2nc(-c3ccc(C(=O)Nc4cc(C(F)(F)F)ccn4)cc3)c3c(N)ncc(c32)/C=C/CCN1', 'residence time', 2.94);

I: C[C@@H]1CC(=O)N[C@@H]2CCC[C@H](C2)n2nc(-c3ccc(C(=O)Nc4cc(C#N)ccn4)cc3)c3c(N)ncc(c32)/C=C/CCN1
II: Nc1ncc2c3c1c(-c1ccc(C(=O)Nc4cc(C(F)(F)F)ccn4)cc1F)nn3[C@@H]1CCC[C@H](C1)NC(=O)CNC/C=C/2
query: Pick the one with the larger residence time: I vs II State your choice using its label.
result: I

* * *

# target-under-test: wt-BTK (Homo sapiens (Human))
# Sequence (Q06187 whole entry): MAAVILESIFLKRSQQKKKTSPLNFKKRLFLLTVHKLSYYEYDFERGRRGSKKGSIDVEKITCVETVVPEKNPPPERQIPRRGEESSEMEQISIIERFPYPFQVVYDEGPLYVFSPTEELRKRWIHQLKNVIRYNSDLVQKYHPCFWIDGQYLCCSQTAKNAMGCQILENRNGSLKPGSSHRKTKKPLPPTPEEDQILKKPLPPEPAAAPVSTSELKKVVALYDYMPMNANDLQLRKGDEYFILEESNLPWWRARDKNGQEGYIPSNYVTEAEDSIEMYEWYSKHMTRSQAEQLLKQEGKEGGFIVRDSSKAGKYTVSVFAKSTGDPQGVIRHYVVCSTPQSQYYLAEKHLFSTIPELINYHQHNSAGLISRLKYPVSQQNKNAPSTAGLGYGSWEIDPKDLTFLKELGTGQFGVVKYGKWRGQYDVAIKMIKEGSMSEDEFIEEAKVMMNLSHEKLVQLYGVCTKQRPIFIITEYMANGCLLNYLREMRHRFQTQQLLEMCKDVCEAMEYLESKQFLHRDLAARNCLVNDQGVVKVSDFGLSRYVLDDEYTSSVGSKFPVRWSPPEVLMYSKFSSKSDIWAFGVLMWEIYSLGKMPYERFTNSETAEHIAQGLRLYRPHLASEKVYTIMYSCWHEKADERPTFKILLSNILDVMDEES
# experiment-description: Binding kinetics measurements (Surface Plasmon Resonance) on wt-BTK
# conditions: target residence time, SPR
Tau (h) wt-BTK (Act) listing for selected compounds.
Your answer should be a plain number; it is taken to be in h.

INSERT INTO results (mol_smiles, target_under_test, unit, value) VALUES
  ('N#Cc1ccnc(NC(=O)c2ccc(-c3nn4c5c(cnc(N)c35)/C=C/CCCCCC(=O)N[C@@H]3CC[C@@H]4C3)cc2)c1', 'wt-BTK (Homo sapiens (Human))', 'h', 2.96);

Let us examine a further case.
query: API: value(readout= Tau (h) wt-BTK (Act), system= wt-BTK (Homo sapiens (Human)), query= `Nc1ncc2c3c1c(-c1ccc(C(=O)Nc4cc(C(F)(F)F)ccn4)cc1)nn3[C@@H]1CCC[C@H](C1)NC(=O)CCCCC/C=C/2` )
result: 4.87
